Values from ChEMBL document CHEMBL1154070

target: RAC-alpha serine/threonine-protein kinase (Homo sapiens)
Sequence (P31749 whole entry): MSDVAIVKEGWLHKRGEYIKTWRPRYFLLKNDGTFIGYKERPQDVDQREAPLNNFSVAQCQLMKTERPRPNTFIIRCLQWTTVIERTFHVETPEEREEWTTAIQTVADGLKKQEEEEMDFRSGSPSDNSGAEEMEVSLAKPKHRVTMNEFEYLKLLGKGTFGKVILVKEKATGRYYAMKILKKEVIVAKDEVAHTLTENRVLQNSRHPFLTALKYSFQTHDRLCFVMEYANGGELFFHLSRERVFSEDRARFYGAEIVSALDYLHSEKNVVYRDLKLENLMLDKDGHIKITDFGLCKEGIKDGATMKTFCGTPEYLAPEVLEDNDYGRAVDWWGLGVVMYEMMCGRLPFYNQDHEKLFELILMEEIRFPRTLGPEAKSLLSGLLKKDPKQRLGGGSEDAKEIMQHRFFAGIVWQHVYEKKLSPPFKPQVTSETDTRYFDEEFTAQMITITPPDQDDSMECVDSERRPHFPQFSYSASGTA
pIC50: −log10 of the molar value.
Would you please tag the item satisfied when its pIC50 is 7 or above, and not satisfied when it is below?

These solved cases illustrate the format of a correct answer.
| compound | label class |
| --- | --- |
| Nc1nccc2cc(-c3cncc(OC[C@@H](N)Cc4c[nH]c5ccccc45)c3)ccc12 | not satisfied |
| N[C@H](COc1cncc(CCc2ccncc2)c1)Cc1c[nH]c2ccccc12 | not satisfied |
| N[C@H](COc1cncc(-c2ccc3[nH]nc(-c4ccccc4)c3c2)c1)Cc1c[nH]c2ccccc12 | satisfied |
| O=c1[nH]c2ccccc2n1C1CCN(Cc2ccc(-c3nc4cc(-n5cnnn5)ccc4nc3-c3ccccc3)cc2)CC1 | satisfied |

Prompt: Form field: pIC50 at least 7? Entry: Cc1ccc(C2C(=O)Nc3ccc(-c4cncc(OC[C@@H](N)Cc5c[nH]c6ccccc56)c4)cc32)o1 (stereo partly specified)
Completion: satisfied
